# System: Wnt11-RFP UB organoid
# assay explanation: Stage III 1st round screening of growth factors and small molecules for UB organoid culture condition
# Assay type: cell-based, mouse
# measurement conditions: reagent added to FGF9 + C3 + TTNPB + GDNF; compared to that control group
parameter measured: Wnt11-RFP

# molecule, Wnt11-RFP
rows = [
    ("Oc1ccc(-c2nc(-c3ccncc3)c(-c3ccc(F)cc3)[nH]2)cc1 [S6202190]", "Slightly Better"),
    ("CC(C)(C)c1nc2c3cc[nH]c(=O)c3c3cc(F)ccc3c2[nH]1 [JAKI]", "Slightly Better"),
    ("Cc1cccc(-c2nn(C(=S)Nc3ccccc3)cc2-c2ccnc3ccccc23)n1 [A83-01]", "Better"),
    ("C[C@H](NC(=O)Cc1cc(F)cc(F)c1)C(=O)N[C@H](C(=O)OC(C)(C)C)c1ccccc1 [DAPT]", "Better"),
    ("c1ccc2c(-c3cnn4cc(-c5ccc(N6CCNCC6)cc5)cnc34)ccnc2c1 [LDN193189]", "Better"),
]

Kindly review the next molecule as well.
Entry CN(C)C(=N)NC(=N)N [Melformin] , Wnt11-RFP reported as Slightly Better

----------
# System: UB organoids
# assay explanation: 2nd round of CD differentiation condition screening (qRT-PCR of Aqp2 and Foxi1)
# Format: cell-based, mouse
# measurement conditions: qRT-PCR, 7 days, under hBI+FGF9+Y27632 condition
# Protocol: The functions of the mature renal CD system are carried out by two major cell populations that are intermingled throughout the entire CD network. The more abundant principal cells (PCs) concentrate the urine and regulate Na^+/K^+ homeostasis via water and Na^+/K^+ transporters. The less abundant α- and β-intercalated cells (ICs) regulate normal acid-base homeostasis via secretion of H^+ or HCO3^− into the urine. […]
parameter measured: Foxi1 expression

# line notation, experimental result
rows = [
    ("O=C(NOC[C@H](O)CO)c1ccc(F)c(F)c1Nc1ccc(I)cc1F", "dramatically increased"),
    ("C[C@H](NC(=O)Cc1cc(F)cc(F)c1)C(=O)N[C@H](C(=O)OC(C)(C)C)c1ccccc1", "dramatically increased"),
    ("CC(C)(C)c1nc2c3cc[nH]c(=O)c3c3cc(F)ccc3c2[nH]1", "dramatically increased"),
]
